System: BT-549
Assay: NCI 60 cell panel SRB screen
Format: cell-based
Details: Homo sapiens, BT-549, read-out: TGI
reported.endpoint: IC (TGI) (µM)
Unit µM implied. Number only.

get_value(item= "Cc1nnc(Nc2ccc(NC(=O)Nc3ccc(Cl)cc3)cc2)c2ccccc12" , readout=IC (TGI)) returns 5.55

Lab book: IC (TGI) of O=C(Nc1ccccc1)Nc1ccc(Oc2nnc(Cl)c3ccccc23)cc1 [Compound 13a] noted as 10.8

Short answer for "O=C(Nc1ccc(Cl)cc1)Nc1ccc(Oc2nncc3ccccc23)cc1" : IC (TGI) was 7.43

IC (TGI) reported for this molecule "O=C(Nc1ccc(Cl)cc1)Nc1ccc(Nc2nncc3ccccc23)cc1" : 9.28

Just so you know, measured IC (TGI) for COc1cccc(NCc2nnc(Nc3ccc(Cl)cc3)c3ccccc23)c1 [Compound 16d] came out at 7.42

In plain terms, Clc1ccc(Nc2nnc(CNc3ccccc3)c3ccccc23)cc1 [Compound 16a] has a documented IC (TGI) of 8.2

In plain terms, Clc1ccc(Nc2nnc(COc3ccccc3)c3ccccc23)cc1 [Compound 17a] has a documented IC (TGI) of 6.65

====

Tested on: K-562
reported.endpoint: GI50 (µM)
Kindly provide the numeric value in µM only, without the unit symbol.

compound="COc1cccc(NCc2nnc(Nc3ccc(Cl)cc3)c3ccccc23)c1 [Compound 16d]" measured=1.49

Observed GI50, K-562, Clc1ccc(Nc2nnc(COc3ccccc3)c3ccccc23)cc1 [Compound 17a] : 1.85

So the reported GI50 for Clc1ccc(Nc2nnc(CNc3ccccc3)c3ccccc23)cc1 [Compound 16a] , on K-562, turned out to be 1.71

====

Tested on: RPMI-8226
GI50 values for the compounds below.
Kindly provide the numeric value in nM only, without the unit symbol.

The cases that follow already have their GI50 on record.
compound="Clc1ccc(Nc2nnc(COc3ccccc3)c3ccccc23)cc1 [Compound 17a]" reported_endpoint=GI50 measured=1370
compound="O=C(Nc1ccc(Cl)cc1)Nc1ccc(Oc2nncc3ccccc23)cc1 [Compound 7b]" reported_endpoint=GI50 measured=480
compound="Clc1ccc(Nc2nnc(CNc3ccccc3)c3ccccc23)cc1 [Compound 16a]" reported_endpoint=GI50 measured=2100
compound="Cc1nnc(Nc2ccc(NC(=O)Nc3ccc(Cl)cc3)cc2)c2ccccc12 [Compound 6e]" reported_endpoint=GI50 measured=2600

Record O=C(Nc1ccc(Cl)cc1)Nc1ccc(Nc2nncc3ccccc23)cc1 [Compound 6b] . Reported GI50: 2500

Noted for O=C(Nc1ccccc1)Nc1ccc(Oc2nnc(Cl)c3ccccc23)cc1 [Compound 13a] : its GI50 reads 4450

// COc1cccc(NCc2nnc(Nc3ccc(Cl)cc3)c3ccccc23)c1 [Compound 16d] : GI50 value = 1480

====

Tested on: OVCAR-3
Test: NCI 60 cell panel SRB screen
Format: cell-based
Conditions: Homo sapiens; OVCAR-3, 5 log dose
Reported values of IC (TGI) for individual entries
// units = µM; emit number, no label

Here's what some known entries look like.
molecule="COc1cccc(NCc2nnc(Nc3ccc(Cl)cc3)c3ccccc23)c1 [Compound 16d]" measured=10
molecule=Cc1nnc(Nc2ccc(NC(=O)Nc3ccc(Cl)cc3)cc2)c2ccccc12 measured=3.99
molecule="Clc1ccc(Nc2nnc(COc3ccccc3)c3ccccc23)cc1 [Compound 17a]" measured=9.8
molecule="Clc1ccc(Nc2nnc(CNc3ccccc3)c3ccccc23)cc1 [Compound 16a]" measured=8.69
molecule="O=C(Nc1ccccc1)Nc1ccc(Oc2nnc(Cl)c3ccccc23)cc1 [Compound 13a]" measured=5.97
molecule=O=C(Nc1ccc(Cl)cc1)Nc1ccc(Nc2nncc3ccccc23)cc1 measured=10.3

Now consider the entry below.
Item: "O=C(Nc1ccc(Cl)cc1)Nc1ccc(Oc2nncc3ccccc23)cc1" | System: OVCAR-3 | IC (TGI): 1.15
